Assay: ADME solubility determination at pH 2.0 and pH 7.4
Format: physicochemical
Settings: aqueous buffer, thermodynamic from solid; PBS pH 7.4, shaken at 25° C. for 24 hours, LC-MS/MS; read-out: Solubility at pH 7.4
assay_metric: solubility at 24 h

The examples below pair each entry with its known result.
> print(dat)
                                   compound  experimental.result
1  COc1ncnc(C2CC2)c1-c1ncc2cnn([C@@H](C)c3ccc(-c4nc(C(F)(F)F)cn4C)cc3)c2n1 (single isomer, unassigned) [Example 92]              > 10 µM
2  COc1ncnc(C2CC2)c1-c1ncc2cnn(Cc3ccc(-c4nc(C(F)(F)F)c(Br)n4C(C)C)cc3)c2n1 [Example 162]              < 10 µM
3  CCn1cc(C(F)(F)F)nc1-c1ccc(Cn2ncc3cnc(-c4c(OC)cnn4C4CC4)nc32)cc1 [Example 82]              < 10 µM
4  [2H]C([2H])([2H])Oc1ncnc(C2CC2)c1-c1ncc2cnn(Cc3ccc(-c4nc(C(F)(F)F)cn4CC)cc3)c2n1 [Example 67]              < 10 µM
5  COc1ncnc(C2CC2)c1-c1ncc2cnn(Cc3ccc(-c4nc(C(F)(F)F)cn4C)cc3)c2n1 [Example 12]              > 10 µM

Let us examine a further case.
INPUT: Consider the compound CNc1cc(C(F)(F)F)nn1-c1ccc(Cn2ncc3cnc(-c4c(OC)ncnc4C4CC4)nc32)cc1 [Example 120] . State its measured solubility at 24 h.
OUTPUT: < 10 µM

###

Test: ADME solubility determination at pH 2.0 and pH 7.4
Format: physicochemical
Details: aqueous buffer, thermodynamic from solid; PBS pH 2.0, shaken at 25° C. for 24 hours, LC-MS/MS; read-out: Solubility at pH 2.0
Catalogue of compounds with associated solubility at 24 h

> print(dat)
                                   compound        assay.metric  experimental.result
1  CCOc1cc(C(F)(F)F)nn1-c1ccc(Cn2ncc3cnc(-c4c(OC)ncnc4C4CC4)nc32)cc1 [Example 76]  solubility at 24 h              < 10 µM
2  CCn1cc(C(F)(F)F)nc1-c1ccc([C@H](C)n2nc(OC)c3cnc(-c4c(OC)ncnc4C4CC4)nc32)cc1 [Example 180]  solubility at 24 h              < 10 µM
3  COc1ncnc(C(C)C)c1-c1ncc2cnn(Cc3ccc(-c4nc(C(F)(F)F)cn4C(C)C)cc3)c2n1 [Example 119]  solubility at 24 h              < 10 µM
4  COc1ncnc(C2CC2)c1-c1ncc2nc(C3CC3)n(Cc3ccc(-n4nc(C(F)(F)F)cc4C)cc3)c2n1 [Example 213]  solubility at 24 h              < 10 µM
5  COc1ncnc(C2CC2)c1-c1ncc2cnn([C@@H]3CCc4cc(-c5nc(C(F)(F)F)cn5C(C)C)ccc43)c2n1 [Example 174]  solubility at 24 h              < 10 µM
6  CCn1cc(C(F)(F)F)nc1-c1ccc([C@H](C)n2ncc3cnc(-c4c(OC)ncnc4C4CCC4)nc32)cc1 (single isomer, unassigned) [Example 99]  solubility at 24 h              > 10 µM

Continue with the compound presented below.
INPUT: Hello, please tell me recorded solubility at 24 h for this one: COc1ncnc(C2CC2)c1-c1ncc2c(OC)nn([C@@H](C)c3ccc(-c4nc(C(F)(F)F)cn4C(C)C)cc3)c2n1 [Example 181]
OUTPUT: > 10 µM

// data source = patent US11485736B2
